Could you please report measured MIC E2 for the items listed next?
System: K. aerogenes ATCC 13048
Format: cell-based, Klebsiella aerogenes
Conditions: ATCC 13048, 18 h
Residues, ends and D or L forms follow the SMILES beside them. *: point of attachment. Myristoyl = CCCCCCCCCCCCCC(=O)*; Acm = CC(=O)NC*
Numbers only; they are read as µg/mL.

Using the record for CCCCCCCCCCCCCC(=O)N[C@@H](CCSC)C(=O)N[C@@H](CCCNC(=N)N)C(=O)N[C@@H](CCCNC(=N)N)C(N)=O [compound 50, C14-MRR-NH2] (HELM PEPTIDE1{[CCCCCCCCCCCCCC(=O)[*:2]].M.R.R.[am]}$$$$V2.0) , state its measured MIC E2.
128

Report MIC E2, nothing else, for this molecule: CCCCCCCCCCCCCC(=O)N[C@@H](CC(N)=O)C(=O)N[C@@H](CCCNC(=N)N)C(=O)N[C@@H](CCCNC(=N)N)C(N)=O [compound 62, C14-NRR-NH2] (HELM PEPTIDE1{[CCCCCCCCCCCCCC(=O)[*:2]].N.R.R.[am]}$$$$V2.0)
128

For the molecule CCCCCCCCCCCCCC(=O)N[C@@H](CSCNC(C)=O)C(=O)N[C@@H](CCCNC(=N)N)C(=O)N[C@@H](CCCNC(=N)N)C(N)=O [compound 14, C14-C(Acm)RR-NH2] (Myristoyl-Cys(Acm)-Arg-Arg-NH2) , give its measured MIC E2 value.
256

Query MIC E2 for CCCCCCCCCCCCCC(=O)N[C@@H](CCC(N)=O)C(=O)N[C@@H](CCCNC(=N)N)C(=O)N[C@@H](CCCNC(=N)N)C(N)=O [compound 78, C14-QRR-NH2] (HELM PEPTIDE1{[CCCCCCCCCCCCCC(=O)[*:2]].Q.R.R.[am]}$$$$V2.0)
256

Quote MIC E2 reported for CCCCCCCCCCCCCCCCCC(=O)N[C@@H](CCCNC(=N)N)C(=O)N[C@@H](CCCNC(=N)N)C(N)=O [compound 6, C18-RR-NH2, reference compound] (HELM PEPTIDE1{[CCCCCCCCCCCCCCCCCC(=O)[*:2]].R.R.[am]}$$$$V2.0) please.
16

Item CCCCCCCCCCCCCC(=O)N[C@@H](Cc1ccc(O)cc1)C(=O)N[C@@H](CCCNC(=N)N)C(=O)N[C@@H](CCCNC(=N)N)C(N)=O [compound 102, C14-YRR-NH2] (HELM PEPTIDE1{[CCCCCCCCCCCCCC(=O)[*:2]].Y.R.R.[am]}$$$$V2.0) : provide MIC E2
64

State its MIC E2: CCCCCCCCCCCC(=O)N[C@H](C(=O)N[C@@H](CCCNC(=N)N)C(=O)N[C@@H](CCCNC(=N)N)C(N)=O)C(C)C [compound 93, C12-VRR-NH2] (HELM PEPTIDE1{[CCCCCCCCCCCC(=O)[*:2]].V.R.R.[am]}$$$$V2.0)
256

###

Test system: K. pneumoniae ATCC 700603
Type: cell-based, Klebsiella pneumoniae
Conditions: ATCC 700603, 18 h
Residues, ends and D or L forms follow the SMILES beside them.
readout.kind: MIC K (µg/mL)
Note: unit µg/mL is implicit; provide only the numeric part.

Please look at this compound and report its MIC K: CCCCCCCCCCCC(=O)N[C@@H](CCC)C(=O)N[C@@H](CCCNC(=N)N)C(=O)N[C@@H](CCCNC(=N)N)C(N)=O [compound 69, C12-NvaRR-NH2] (HELM PEPTIDE1{[CCCCCCCCCCCC(=O)[*:2]].[Nva].R.R.[am]}$$$$V2.0)
256

Give reported MIC K value for CCCCCCCCCCCCCC(=O)N[C@@H](CCCNC(=N)N)C(=O)N[C@@H](CCCNC(=N)N)C(N)=O [compound 4, C14-RR-NH2, reference compound] (HELM PEPTIDE1{[CCCCCCCCCCCCCC(=O)[*:2]].R.R.[am]}$$$$V2.0)
256
